study-target: human Fatty Acid Synthase (Homo sapiens, UniProt P49327)
Construct: made in house
Sequence (P49327 whole entry): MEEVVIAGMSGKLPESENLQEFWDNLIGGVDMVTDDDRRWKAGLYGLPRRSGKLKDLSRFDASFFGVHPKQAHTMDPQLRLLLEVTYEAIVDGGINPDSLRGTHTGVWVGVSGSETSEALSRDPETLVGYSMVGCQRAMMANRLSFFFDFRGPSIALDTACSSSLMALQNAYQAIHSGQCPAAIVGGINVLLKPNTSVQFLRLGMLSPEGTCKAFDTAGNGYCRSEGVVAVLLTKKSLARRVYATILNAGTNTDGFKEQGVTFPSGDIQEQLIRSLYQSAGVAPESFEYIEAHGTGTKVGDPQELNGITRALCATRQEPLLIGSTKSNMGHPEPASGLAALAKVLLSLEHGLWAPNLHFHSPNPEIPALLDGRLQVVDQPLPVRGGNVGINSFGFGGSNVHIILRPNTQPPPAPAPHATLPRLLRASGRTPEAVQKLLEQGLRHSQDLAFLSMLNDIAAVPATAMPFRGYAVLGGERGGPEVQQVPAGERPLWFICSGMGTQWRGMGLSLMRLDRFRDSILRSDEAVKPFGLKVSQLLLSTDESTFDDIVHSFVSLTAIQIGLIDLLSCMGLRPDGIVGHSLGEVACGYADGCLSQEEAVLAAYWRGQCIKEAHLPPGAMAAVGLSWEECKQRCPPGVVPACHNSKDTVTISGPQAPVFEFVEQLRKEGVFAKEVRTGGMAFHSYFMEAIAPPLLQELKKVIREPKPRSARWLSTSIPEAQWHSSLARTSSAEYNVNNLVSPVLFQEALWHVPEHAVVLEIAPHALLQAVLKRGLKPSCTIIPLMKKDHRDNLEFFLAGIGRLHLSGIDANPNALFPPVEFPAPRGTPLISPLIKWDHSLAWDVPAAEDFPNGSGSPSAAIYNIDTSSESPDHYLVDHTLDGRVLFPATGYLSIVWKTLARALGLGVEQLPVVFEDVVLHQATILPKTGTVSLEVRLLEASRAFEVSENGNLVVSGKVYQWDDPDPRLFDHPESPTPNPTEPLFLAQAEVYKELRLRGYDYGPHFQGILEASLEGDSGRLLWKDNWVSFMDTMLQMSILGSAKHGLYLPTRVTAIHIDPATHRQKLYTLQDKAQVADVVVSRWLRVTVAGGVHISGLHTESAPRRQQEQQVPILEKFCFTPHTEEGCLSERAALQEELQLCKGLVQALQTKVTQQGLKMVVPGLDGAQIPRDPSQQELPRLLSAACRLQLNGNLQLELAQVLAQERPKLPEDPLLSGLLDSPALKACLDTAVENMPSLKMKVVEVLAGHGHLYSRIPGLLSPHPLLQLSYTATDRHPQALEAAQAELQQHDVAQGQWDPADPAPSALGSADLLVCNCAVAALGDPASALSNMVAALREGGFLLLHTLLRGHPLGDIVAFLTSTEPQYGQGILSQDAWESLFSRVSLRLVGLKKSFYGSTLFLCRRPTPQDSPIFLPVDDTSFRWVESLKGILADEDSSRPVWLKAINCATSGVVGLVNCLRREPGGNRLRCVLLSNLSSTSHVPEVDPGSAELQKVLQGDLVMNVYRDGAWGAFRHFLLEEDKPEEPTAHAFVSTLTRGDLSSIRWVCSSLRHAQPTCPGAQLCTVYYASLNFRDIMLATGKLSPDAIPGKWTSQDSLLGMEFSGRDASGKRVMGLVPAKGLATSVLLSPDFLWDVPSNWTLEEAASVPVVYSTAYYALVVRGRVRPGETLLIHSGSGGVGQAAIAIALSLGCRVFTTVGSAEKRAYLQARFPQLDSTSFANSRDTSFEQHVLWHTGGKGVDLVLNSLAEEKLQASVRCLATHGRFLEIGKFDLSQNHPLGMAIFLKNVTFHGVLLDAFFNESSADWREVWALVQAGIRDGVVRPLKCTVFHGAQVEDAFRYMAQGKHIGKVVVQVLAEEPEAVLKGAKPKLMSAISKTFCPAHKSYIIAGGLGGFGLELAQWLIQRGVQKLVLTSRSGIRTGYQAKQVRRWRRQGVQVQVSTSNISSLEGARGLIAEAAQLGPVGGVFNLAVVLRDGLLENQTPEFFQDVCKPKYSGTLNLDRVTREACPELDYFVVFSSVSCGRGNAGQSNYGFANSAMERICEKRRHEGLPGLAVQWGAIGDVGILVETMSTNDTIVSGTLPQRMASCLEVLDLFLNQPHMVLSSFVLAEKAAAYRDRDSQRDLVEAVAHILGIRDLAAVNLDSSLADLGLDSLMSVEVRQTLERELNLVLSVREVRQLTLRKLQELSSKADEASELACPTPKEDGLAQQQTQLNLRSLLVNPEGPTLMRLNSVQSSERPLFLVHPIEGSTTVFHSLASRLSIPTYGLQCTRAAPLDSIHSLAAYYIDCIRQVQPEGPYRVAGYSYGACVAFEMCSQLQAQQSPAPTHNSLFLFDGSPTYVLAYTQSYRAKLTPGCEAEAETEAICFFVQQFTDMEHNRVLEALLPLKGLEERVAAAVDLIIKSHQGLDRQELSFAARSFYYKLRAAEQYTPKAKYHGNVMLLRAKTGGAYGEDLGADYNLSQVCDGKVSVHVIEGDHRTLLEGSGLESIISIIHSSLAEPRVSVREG
test-protocol: Human FAS enzyme assay (decrease in NADPH fluorescence)
Assay type: biochemical
reported-conditions: % inhibition at a concentration of 100 μmolar
measurement-kind: inhibition at 100 µM (%)
Please reply with the bare figure in % and do not write the unit itself.

Data request: # returns recorded inhibition at 100 µM (system: human Fatty Acid Synthase (Homo sapiens, UniProt P49327)) for `Cc1ccc(C(=O)N2CCC(c3ccc(C#N)cc3)CC2)cc1NC(=O)N[C@H]1CCN(C(=O)OC(C)(C)C)C1`
Data returned: 97.4

Data request: Field: inhibition at 100 µM (human Fatty Acid Synthase (Homo sapiens, UniProt P49327)). Entry: `Cc1ccc(C(=O)N2CCC(c3ccc(C#N)cc3)CC2)cc1NC(=O)N1CC(NS(=O)(=O)N(C)C)C1`
Data returned: 87.4

Data request: inhibition at 100 µM of `Cc1ccc(C(=O)N2CCC(c3ccc(C#N)cc3)CC2)cc1NC(=O)NCC(N)=O` on human Fatty Acid Synthase (Homo sapiens, UniProt P49327)?
Data returned: 89.9

Data request: Param readout= inhibition at 100 µM; system= human Fatty Acid Synthase (Homo sapiens, UniProt P49327); entry= `COc1ccc([C@@H](C)NC(=O)Nc2cc(C(=O)N3CCC(c4ccc(C#N)cc4)CC3)ccc2C)cc1` ; returns value.
Data returned: 92.3

Data request: Lab note: need inhibition at 100 µM for `COC[C@@H](CO)NC(=O)Nc1cc(C(=O)N2CCC(c3ccc(C#N)cc3)CC2)ccc1C` on human Fatty Acid Synthase (Homo sapiens, UniProt P49327), anyone have it?
Data returned: 87.9

Data request: Lab note: need inhibition at 100 µM with human Fatty Acid Synthase (Homo sapiens, UniProt P49327) for entry `Cc1ccc(C(=O)N2CCC(c3ccc(C#N)cc3)CC2)cc1NC(=O)NCC(C)(C)CO` , please look it up.
Data returned: 89

Data request: Fill in the recorded inhibition at 100 µM for this compound, with human Fatty Acid Synthase (Homo sapiens, UniProt P49327) as test system: `CSc1ccc(NC(=O)NC(C)C)cc1C(=O)N1CCC(c2ccc(C#N)cc2)CC1`
Data returned: 66.8

Data request: I'm curious: which inhibition at 100 µM was measured for Cc1ccc(C(=O)N2CCC(c3ccc(C#N)cc3)CC2)cc1NC(=O)NC(C)C(C)C (centres unmarked) tested on human Fatty Acid Synthase (Homo sapiens, UniProt P49327)?
Data returned: 88.7

###

study-target: human Fatty Acid Synthase (Homo sapiens, UniProt P49327)
Construct: made in house
test-protocol: Human FAS enzyme assay (decrease in NADPH fluorescence)
Assay type: biochemical
reported-conditions: % inhibition at a concentration of 100 μmolar
The threshold is inclusive: inhibition at 100 µM of exactly 90% counts as MET; values below receive NOT MET.

Data request: Form field: inhibition at 100 µM at least 90%? Entry: `CCC(=O)NCCNC(=O)Nc1cc(C(=O)N2CCC(c3ccc(C#N)cc3)CC2)ccc1C`
Data returned: MET

Data request: # bool: inhibition at 100 µM of Cc1ccc(C(=O)N2CCC(c3ccc(C#N)cc3)CC2)cc1NC(=O)NC(C)c1ccncc1 (centres unmarked) >= 90%
Data returned: MET

Data request: Identify whether the reported inhibition at 100 µM of the following compound is 90% or greater: `Cc1ccc(C(=O)N2CCC(c3ccc(C#N)cc3)CC2)cc1NC(=O)N[C@@H](COC(C)(C)C)C(N)=O`
Data returned: NOT MET

Data request: Threshold query (inhibition at 100 µM >= 90%) on `COc1ccc(CCNC(=O)Nc2cc(C(=O)N3CCC(c4ccc(C#N)cc4)CC3)ccc2C)cc1`
Data returned: MET

Data request: Textbook exercise: given the entry `Cc1ccc(C(=O)N2CCC(c3ccc(C#N)cc3)CC2)cc1NC(=O)N1CCC1` , state whether its inhibition at 100 µM is greater than or equal to 90%.
Data returned: NOT MET

// data source = patent US20090118332A1
